System: Fibroblast
Test: Multiplex assay against human fibroblast
Assay type: toxicity, cell-based
Conditions: 24 h, 1 µM, compound concentration 1 uM, replicate 2
endpoint-label: Population Fragmented Nuclei (%)
Give a bare numeral; the unit % is implied.

As a guide, the following entries are already answered.
> print(dat)
                                   molecule                    endpoint.label  endpoint.value
1  CC(C)c1noc(N2CCC(COc3ccc(-c4ccc(S(C)(=O)=O)cc4)nc3)CC2)n1  Population Fragmented Nuclei (%)              20
2         CN1CCN(c2cc(-c3ccccc3)nc(N)n2)CC1  Population Fragmented Nuclei (%)              36

Problem: Need Population Fragmented Nuclei (%) of Br.CS(=O)(=O)Nc1c(O)ccc2c1CCCC2C1=NCCN1 (stereo not drawn) , thanks.
Solution: 25

Problem: Need Population Fragmented Nuclei (%) of "Cc1onc(-c2ccccc2Cl)c1C(=O)N(C)c1ccc(Cl)cc1" , thanks.
Solution: 22

Problem: Need Population Fragmented Nuclei (%) of "CN[C@@H](C)C(=O)N[C@H](C(=O)N1CCC[C@H]1C(=O)Nc1snnc1-c1ccccc1)C1CCCCC1" , thanks.
Solution: 22

Problem: Need Population Fragmented Nuclei (%) of "COc1ccccc1N1CCN(C[C@@H](C(=O)NC(C)(C)C)c2ccccc2)CC1.Cl.Cl" , thanks.
Solution: 24

Problem: Need Population Fragmented Nuclei (%) of "Cc1noc(-c2ccc(-c3ccc(CC(=O)O)cc3)cc2)c1NC(=O)O[C@H](C)c1ccccc1Cl" , thanks.
Solution: 30

Problem: Need Population Fragmented Nuclei (%) of "CCCCC1=NC2(CCCC2)C(=O)N1Cc1ccc(-c2ccccc2-c2nnn[nH]2)cc1" , thanks.
Solution: 25

Problem: Need Population Fragmented Nuclei (%) of COC[C@@H](c1ccc(C(F)(F)F)cc1)N1CCN(C2(C)CCN(C(=O)c3c(C)ncnc3C)CC2)C[C@@H]1C.O=C(O)/C=C\C(=O)O [VICRIVIROC MALEATE] , thanks.
Solution: 28

Problem: Need Population Fragmented Nuclei (%) of CCCCCC(O)/C=C/[C@H]1C(=O)CC(O)C1C/C=C\CCCC(=O)O (stereo partly drawn) , thanks.
Solution: 41
